# EXPERIMENTAL_TARGET: Trypsin (Sus scrofa, UniProt P00761)
# Sequence (P00761 whole entry): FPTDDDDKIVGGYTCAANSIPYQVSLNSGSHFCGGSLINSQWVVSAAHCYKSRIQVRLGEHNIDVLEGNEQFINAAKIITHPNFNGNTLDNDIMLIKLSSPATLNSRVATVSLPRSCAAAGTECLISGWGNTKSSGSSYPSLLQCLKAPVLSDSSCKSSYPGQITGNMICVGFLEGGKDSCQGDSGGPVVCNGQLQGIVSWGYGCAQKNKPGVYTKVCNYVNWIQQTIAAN
# EXPERIMENT_NOTES: Inhibition of pig pancreas trypsin type IX-S
PROPERTY_LABEL: IC50

Q. // query IC50 value for entry CC(=O)N[C@@H](CC(C)C)C(=O)N[C@@H](CC(C)C)C(=O)N[C@H](C=O)CCCNC(=N)N
A. > 200 nM
